FYI, the data here is from ChEMBL document CHEMBL1146137.

IC50 reference
tested on: Hepatocyte; assay: Cytotoxicity against rat hepatocytes; assay type: functional, cell-based
Write the value in µM as a bare number.

Recorded results for 8 molecules are shown here.
>>> reported_result("COc1ccc2c(=O)n(CC(=O)C[C@H]3NCCC[C@@H]3O)cnc2c1")
0.015
>>> reported_result("Cc1cccc2c(=O)n(CC(=O)C[C@H]3NCCC[C@@H]3O)cnc12")
0.14
>>> reported_result("Cc1ccc2c(=O)n(CC(=O)C[C@H]3NCCC[C@@H]3O)cnc2c1")
0.117
>>> reported_result("O=C(C[C@H]1NCCC[C@@H]1O)Cn1cnc2cccc(C(F)(F)F)c2c1=O")
19
>>> reported_result("O=C(C[C@H]1NCCC[C@@H]1O)Cn1cnc2ncccc2c1=O")
22
>>> reported_result("O=C(C[C@@H]1NCCC[C@H]1O)Cn1cnc2ccccc2c1=O [FEBRIFUGINE]")
0.169
>>> reported_result("O=C(C[C@H]1NCCC[C@@H]1O)Cn1cnc2ccncc2c1=O")
17
>>> reported_result("O=C(C[C@H]1NCCC[C@@H]1O)Cn1cnc2cnccc2c1=O")
19

-- ask Which IC50 is listed for CCN(CC)CCCC(C)Nc1ccnc2cc(Cl)ccc12 (configuration not stated) [CHLOROQUINE] ?
-- reply 19

-- ask Which IC50 is listed for `COc1cccc2c(=O)n(CC(=O)C[C@H]3NCCC[C@@H]3O)cnc12` ?
-- reply 0.016

-- ask Which IC50 is listed for `O=C(C[C@H]1NCCC[C@@H]1O)Cn1cnc2ccc(F)c(F)c2c1=O` ?
-- reply 17

---

test system: Hepatocyte; experiment: Cytotoxicity against rat hepatocytes; format: functional, cell-based
MEASUREMENT_KIND: pIC50
Answer as the number alone; pIC50 is minus log10 of concentration in mol/L.

Recorded results for 5 molecules are shown here.
>>> reported_result("O=C(C[C@H]1NCCC[C@@H]1O)Cn1cnc2cccnc2c1=O")
4.74
>>> reported_result("CC(C)(C)c1cccc2ncn(CC(=O)C[C@H]3NCCC[C@@H]3O)c(=O)c12")
4.15
>>> reported_result("O=C(C[C@H]1NCCC[C@@H]1O)Cn1cnc2ccc(C(F)(F)F)cc2c1=O")
4.82
>>> reported_result("O=C(C[C@H]1NCCC[C@@H]1O)Cn1cnc2c(F)cccc2c1=O")
4.80
>>> reported_result("O=C(C[C@H]1NCCC[C@@H]1O)Cn1cnc2cccc(F)c2c1=O")
4.72

-- ask Which pIC50 is listed for `O=C(C[C@H]1NCCC[C@@H]1O)Cn1cnc2ccc(F)cc2c1=O` ?
-- reply 4.89
